Assay: Mean time to peak plasma concentration in Swiss albino male mice at […] per compound (administered orally in a mixture of 5 compounds to 3 mice) assessed by LCMS/MS.
Assay type: ADME, organism-based
Details: mouse, po
Test Readout: log10(Tmax) (log10 of the value in min)

> print(dat)
                               sample.smiles  measured.number
 1  CCc1nc2cnc(-c3ccc(F)c(C(F)(F)F)c3)cn2c1-c1ccc2[nH]ncc2c1F             2.08
 2  Fc1ccc(-c2cn3c(-c4ccc5[nH]ncc5c4)c(C(F)(F)F)nc3cn2)cc1C(F)(F)F             2.00
 3  CCc1nn2cnc(-c3ccc(F)c(C(F)(F)F)c3)cc2c1-c1c(F)cc(O)cc1F             1.30
 4  CC(C)c1nc2cnc(-c3ccc(F)c(C(F)(F)F)c3)cn2c1-c1c(F)cc(O)cc1F             1.18
 5  CC(C)c1nc2cnc(-c3ccc(F)c(S(F)(F)(F)(F)F)c3)cn2c1-c1ccc2[nH]ncc2c1F             2.15
 6  Fc1ccc(-c2cn3c(-c4ccc5[nH]ncc5c4F)c(C(F)(F)F)nc3cn2)cc1C(F)(F)C(F)(F)F             2.08
 7  CCc1nc2cnc(-c3ccc(F)c(C(F)(F)F)c3)cn2c1-c1c(F)cc(O)cc1F             1.18
 8  Fc1ccc(-c2cn3c(-c4ccc5[nH]ncc5c4F)c(C(F)(F)F)nc3cn2)cc1OC(F)(F)F             1.78
 9   Cc1noc(C)c1-c1cn2c(-c3ccc(O)cc3)cnc2cn1            -0.22
10  Oc1cc(F)c(-c2c(C3CCC3)nc3cnc(-c4ccc(F)c(C(F)(F)F)c4)cn23)c(F)c1             1.30
11  CC(C)c1nc2cnc(-c3cccc(C(F)(F)F)c3)cn2c1-c1ccc(OP(=O)(O)O)cc1F             1.18
12  COc1ccc(-c2c(C3CC3)nc3cnc(-c4cccc(C(F)(F)F)c4)cn23)cc1O             1.18
13  CC(C)c1nc2cnc(-c3ccc(F)c(C(F)(F)F)c3)cn2c1-c1ccc2[nH]ncc2c1F             1.78
14  Fc1ccc(-c2cn3c(-c4ccc5[nH]ncc5c4F)c(C(F)(F)F)nc3cn2)cc1C1CC1             1.60
15  Oc1ccc(-c2cnc3cnc(-c4cccc(C(F)(F)F)c4)cn23)c(F)c1             1.18
16  Oc1ccc(-c2cnn3ccc(-c4cccc(C(F)(F)F)c4)cc23)c(F)c1             1.18
17  Oc1cc(F)c(-c2cnc3cnc(-c4cccc(C(F)(F)F)c4)cn23)c(F)c1             1.18

* * *

Tested on: Schistosoma mansoni
Test: Concentration required to kill 50% of 42 day old worms 5 days after drug treatment.
Type: functional, organism-based
Conditions: Puerto Rican, 120 h
Test Readout: EC50 (nM)

> print(dat)
                              sample.smiles  relation.qualifier  measured.number
1  Cc1nc2cnc(-c3cccc(C(F)(F)F)c3)cn2c1-c1ccc(O)cc1                   <              615
2  Fc1c(-c2c(C(F)(F)F)nc3cnc(-c4ccnc(C(F)(F)F)c4)cn23)ccc2[nH]ncc12                   =              117
3  Oc1cc(F)c(-c2c(CC(F)(F)F)nc3cnc(-c4ccc(F)c(C(F)(F)F)c4)cn23)c(F)c1                   =             79.3

* * *

Test: Mean observed clearance in Swiss albino male mice at 1 mg/kg per compound (administered iv in a mixture of 5 compounds to 3 mice) assessed by LCMS/MS.
Format: ADME, organism-based
Settings: male, Swiss albino, mouse, in vivo, read-out: Clearance (converted)
clearance listing for selected compounds.
Test Readout: clearance (mL/min/kg)

> print(dat)
                              sample.smiles  test.readout  units.symbol  measured.number
1  Oc1ccc(-c2cnc3cnc(-c4cccc(C(F)(F)F)c4)cn23)c(F)c1     clearance     mL/min/kg              168
2  COc1cc(-c2c(C(C)C)nc3cnc(-c4cccc(C(F)(F)F)c4)cn23)cc2cn[nH]c12     clearance     mL/min/kg               17
3  Oc1ccc(-c2cnn3ccc(-c4cccc(C(F)(F)F)c4)cc23)c(F)c1     clearance     mL/min/kg              158
4  COc1ccc(-c2c(C)nn3cnc(-c4cccc(C(F)(F)F)c4)cc23)cc1O     clearance     mL/min/kg              195

* * *

Assay: Mean plasma concentration at 4h in Swiss albino male mice at […] per compound (administered orally in a mixture of 5 compounds to 3 mice) assessed by LCMS/MS.
Assay type: ADME, organism-based
Conditions: mouse, po
Each record's class is read off its concentration at 4 h using these ranges: band A (below 9 ng/mL), band B (9 ng/mL to below 200 ng/mL), band C (200 ng/mL or more)

> print(dat)
                               sample.smiles  assigned.class
 1  Oc1ccc(-c2cnc3cnc(-c4cccc(C(F)(F)F)c4)cn23)c(F)c1          band A
 2  Fc1ccc(-c2cn3c(-c4ccc5[nH]ncc5c4F)c(C(F)(F)F)nc3cn2)cc1C(F)(F)C(F)(F)F          band C
 3  Oc1cc(F)c(-c2c(C3CCC3)nc3cnc(-c4ccc(F)c(C(F)(F)F)c4)cn23)c(F)c1          band B
 4  COc1ccc(-c2c(C(F)(F)F)nc3cnc(-c4cccc(C(F)(F)C(F)(F)F)c4)cn23)cc1O          band A
 5  CCc1nc2cnc(-c3ccc(F)c(C(F)(F)C(F)(F)F)c3)cn2c1-c1c(F)cc(O)cc1F          band C
 6  Cc1nc2cnc(-c3ccc(F)c(C(F)(F)F)c3)cn2c1-c1c(F)cc(OP(=O)(O)O)cc1F          band B
 7  Cc1c(-c2c(C(F)(F)F)nc3cnc(-c4ccc(F)c(C(F)(F)F)c4)cn23)ccc2[nH]ncc12          band C
 8  CC(C)c1cc(-c2cn3c(-c4ccc5[nH]ncc5c4F)c(C(C)C)nc3cn2)ccc1F          band B
 9  Oc1ccc(-c2c(C(F)(F)F)nc3cnc(-c4cccc(C(F)(F)F)c4)cn23)c(F)c1          band B
10  COc1ccc(-c2c(C(C)C)nc3cnc(-c4ccc(F)c(C(F)(F)F)c4)cn23)cc1O          band A
11  Cc1nc2cnc(-c3cccc(C(F)(F)F)c3)cn2c1-c1c(F)cc(O)cc1F          band A
12  Oc1cc(F)c(-c2c(C3CC3)nc3cnc(-c4ccc(F)c(C(F)(F)F)c4)cn23)c(F)c1          band C
13  COc1ccc(-c2c(C(C)C)nc3cnc(-c4cccc(C(F)(F)F)c4)cn23)cc1O          band A

* * *

Assay: Percentage of parent compound remaining after incubation for 90 minutes with cyropreserved mouse hepatocytes at a concentration of 1uM compound and […], determined by LCMS
Format: ADME, tissue-based, Hepatocyte
Conditions: cryopreserved mouse hepatocytes, read-out: Stability
Test Readout: remaining at 1.5 h, 1 µM

> print(dat)
                              sample.smiles  result
1  CC(C)c1nc2cnc(-c3ccc(F)c(C(F)(F)F)c3)cn2c1-c1ccc(O)cc1Cl   20.3%
2  Fc1ccc(-c2cn3c(-c4ccc5[nH]ncc5c4F)c(C4CC4)nc3cn2)cc1C(F)(F)F   79.5%
3  CC(C)c1nc2cnc(-c3cccc(S(F)(F)(F)(F)F)c3)cn2c1-c1c(F)cc(O)cc1F   31.1%

* * *

Lipophilicity listing for selected molecules.
Assay: Partition coefficient of compound between n-octanol and PBS (pH7.4)
Type: physicochemical
Settings: octanol/water, pH 7.4
Test Readout: Lipophilicity

> print(dat)
                               sample.smiles   test.readout   result
 1  Oc1cc(F)c(-c2c(C3CC3)nc3cnc(-c4ccc(F)c(C(F)(F)F)c4)cn23)c(F)c1  Lipophilicity   4.34 =
 2  CC(C)c1cccc(-c2cn3c(-c4ccc(O)cc4)cnc3cn2)c1  Lipophilicity   3.62 =
 3  COc1ccc(-c2c(C(C)C)nc3cnc(-c4ccc(F)c(C(F)(F)F)c4)cn23)cc1O  Lipophilicity    5.7 =
 4  COc1ccc(-c2cnc3cnc(-c4cccc(C(C)C)c4)cn23)cc1O  Lipophilicity   3.56 =
 5  COc1ccc(-c2c(C(C)C)nc3cnc(-c4cccc(C(F)(F)F)c4)cn23)cc1O  Lipophilicity   3.63 =
 6  COc1cc(-c2c(C(C)C)nc3cnc(-c4cccc(C(F)(F)F)c4)cn23)cc2cn[nH]c12  Lipophilicity   5.49 =
 7  CC(C)c1nc2cnc(-c3cccc(C(F)(F)F)c3)cn2c1-c1ccc(OP(=O)(O)O)cc1F  Lipophilicity  0.075 =
 8  CC(C)c1nc2cnc(-c3cccc(C(F)(F)F)c3)cn2c1-c1ccc(O)cc1F  Lipophilicity   4.82 =
 9  COc1ccc(-c2c(C(C)C)nc3cnc(-c4ccnc(N(C)C)c4)cn23)cc1O  Lipophilicity   4.33 =
10  Fc1ccc(-c2cn3c(-c4ccc5[nH]ncc5c4F)c(C(F)(F)F)nc3cn2)cc1C(F)(F)F  Lipophilicity   5.29 =
11  CC(C)c1nc2cnc(-c3cccc(C(F)(F)F)c3)cn2c1-c1ccc2[nH]ncc2c1F  Lipophilicity   4.56 =
12  Oc1ccc(-c2cnc3cnc(-c4cccc(C(F)(F)F)c4)cn23)c(F)c1  Lipophilicity   4.95 =
13  CC(C)Oc1cc(-c2cn3c(-c4ccc5[nH]ncc5c4F)c(C(F)(F)F)nc3cn2)ccc1F  Lipophilicity   5.47 =

Reference source for all entries: ChEMBL document CHEMBL4651341
